Molecular target: YTHDC1 YTH domain (Homo sapiens, UniProt Q96MU7 345-509)
Test: ITC
OBSERVATION TYPE: Kd (nM)
The reply should contain only the number, in nM.

So what does the record say about Kd for CGCGGACTCTG (ssDNA, N6-methyladenine at A6) [11-nt N6mA ssDNA] ?
10
